Where these numbers come from: the supplement of paper PMC6555819

- Test system: RARb homodimer (NR concentration 270 nM)
- method_summary: PBM binding z-score (relative to random genomic background probes); higher = stronger binding; sequences stand for … in GC…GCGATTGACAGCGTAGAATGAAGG
# label = true if PBM binding z-score >= 2 else false

Is it the case that CCTTACGGGTCAAGGTTATATCACGGGTGGTACG has PBM binding z-score reaching or exceeding 2? true

###

Quick reference: PBM binding z-score of the listed items.
- Tested on: PXR:RXRa (NR concentration 270 nM, RXRa partner concentration 90 nM)
- method_summary: PBM binding z-score (relative to random genomic background probes); higher = stronger binding; sequences stand for … in GC…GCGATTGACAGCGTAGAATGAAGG
Just the number, please.

In the examples that follow, each entry is paired with its recorded PBM binding z-score.
- item_sequence: "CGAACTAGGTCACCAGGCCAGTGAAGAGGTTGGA"
  PBM binding z-score: 1.18
- item_sequence: "CGTCCAAGGTCAAAGGTCAGCGAAGAGATGACGG"
  PBM binding z-score: 7.19
- item_sequence: "TCGAGTAAGTTACGGGGGCATTCAGGGATGAAGA"
  PBM binding z-score: 2.63

Item: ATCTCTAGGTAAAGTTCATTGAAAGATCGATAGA | PBM binding z-score: 4.46

Value of PBM binding z-score reported for the sequence GACACAGGGTCAGCTAGAGGCCAGAGTATGGAAA is 2.92

Entry TCTGCTTGGTCAACGATGGTCAGCTAATCTGCTA ; PBM binding z-score = -0.0602

According to the records, this sequence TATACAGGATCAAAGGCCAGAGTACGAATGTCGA displays PBM binding z-score of 0.0724

Recorded result, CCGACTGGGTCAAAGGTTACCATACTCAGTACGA , PBM binding z-score: 5.14

###

- Tested on: THRa:RXRa (NR concentration 90 nM, RXRa partner concentration 90 nM)
- method_summary: PBM binding z-score (relative to random genomic background probes); higher = stronger binding; sequences stand for … in GC…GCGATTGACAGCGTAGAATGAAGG
reported_metric: PBM binding z-score
Quick one: just the number, no unit, thanks!

- item_sequence: "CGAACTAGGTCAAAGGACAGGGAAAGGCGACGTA"
  PBM binding z-score: 2.49
- item_sequence: "CCTACTGGGCGATTCAGAGGTCATTGATCATATG"
  PBM binding z-score: 2.83
- item_sequence: "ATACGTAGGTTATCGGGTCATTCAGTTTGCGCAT"
  PBM binding z-score: 3.18
- item_sequence: "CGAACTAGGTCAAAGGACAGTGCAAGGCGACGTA"
  PBM binding z-score: 2.57
- item_sequence: "TGAATGAGGTTAAAGGTCAGGGAACGTGGCGTCG"
  PBM binding z-score: 4.33

Next up:
Looking up TAGCCTAGGTCATTTGGCCAGTATAGTACGCATC , I see its PBM binding z-score listed as 2.65

###

- Test system: LXRa homodimer (NR concentration 270 nM)
- method_summary: PBM binding z-score (relative to random genomic background probes); higher = stronger binding; sequences stand for … in GC…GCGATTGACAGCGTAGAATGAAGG
reported_metric: PBM binding z-score

Data point: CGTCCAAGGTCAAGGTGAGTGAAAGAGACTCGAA ; PBM binding z-score = 0.292

###

- System: LXRa homodimer (NR concentration 270 nM)
- method_summary: PBM binding z-score (relative to random genomic background probes); higher = stronger binding; sequences stand for … in GC…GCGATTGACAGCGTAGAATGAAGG
reported_metric: PBM binding z-score
# respond with the number and nothing more

PBM binding z-score in this record for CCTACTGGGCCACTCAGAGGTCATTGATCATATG : 4.52

Note to self: PBM binding z-score recorded for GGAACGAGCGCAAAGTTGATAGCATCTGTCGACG was -0.68

PBM binding z-score reading for CGTCAAAGTTCAAGTTAACGTAACAGAAAGCAGC : 4.75

The measured PBM binding z-score associated with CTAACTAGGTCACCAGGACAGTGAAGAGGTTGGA reads 0.482

Documented PBM binding z-score of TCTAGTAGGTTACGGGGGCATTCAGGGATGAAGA : 1.27

Summary for this sequence, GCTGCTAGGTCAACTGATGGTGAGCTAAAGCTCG : PBM binding z-score is -0.169

Kindly note the recorded PBM binding z-score for CGAACTAGGTCAAAGGACAGTAAAAGGCGACGTA , which is 0.208

PBM binding z-score recorded for this sequence, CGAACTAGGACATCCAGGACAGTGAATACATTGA , is 0.0183

The sequence listed as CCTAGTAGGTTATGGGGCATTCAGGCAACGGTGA has a reported PBM binding z-score of -0.0293

Per the record, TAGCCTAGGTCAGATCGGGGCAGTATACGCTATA has PBM binding z-score of -0.378

###

# key: entry, value: PBM binding z-score
- System: PPARg homodimer (NR concentration 180 nM)
- method_summary: PBM binding z-score (relative to random genomic background probes); higher = stronger binding; sequences stand for … in GC…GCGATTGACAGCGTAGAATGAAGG
Reply briefly: the number, and no unit.

- item_sequence: "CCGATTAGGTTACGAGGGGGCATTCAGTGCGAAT"
  assay_system: "PPARg homodimer (NR concentration 180 nM)"
  PBM binding z-score: 1.22
- item_sequence: "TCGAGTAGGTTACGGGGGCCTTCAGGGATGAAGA"
  assay_system: "PPARg homodimer (NR concentration 180 nM)"
  PBM binding z-score: 0.342
- item_sequence: "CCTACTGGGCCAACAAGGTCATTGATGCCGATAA"
  assay_system: "PPARg homodimer (NR concentration 180 nM)"
  PBM binding z-score: 2.24

# PBM binding z-score (sequence: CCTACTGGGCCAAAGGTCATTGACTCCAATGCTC ) is 2.5

Lookup result for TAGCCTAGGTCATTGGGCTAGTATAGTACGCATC ; measured PBM binding z-score: 0.811

get_value(item= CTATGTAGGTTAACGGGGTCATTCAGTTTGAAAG , readout=PBM binding z-score) returns 2.41

Record summary for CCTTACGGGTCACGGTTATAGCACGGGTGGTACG : reported PBM binding z-score = 2.07

Summary for this sequence, CATACCGGGTCAGCTAGGCCAGAGTAGGGACGGC : PBM binding z-score is 0.359

Value of measured PBM binding z-score for the entry CCGAGTAGGTTACGGGGGGGCATTCAGTGCGAAT : 4.19

Please fill in: PBM binding z-score reported for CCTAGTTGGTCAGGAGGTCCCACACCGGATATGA = 1.06

The reported PBM binding z-score of the sequence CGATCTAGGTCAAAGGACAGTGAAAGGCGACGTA was 2.2

###

- Test system: FXR:RXRa (NR concentration 270 nM, RXRa partner concentration 90 nM)
- method_summary: PBM binding z-score (relative to random genomic background probes); higher = stronger binding; sequences stand for … in GC…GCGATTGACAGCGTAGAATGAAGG
Listed here: items and their measured PBM binding z-score.
Lab note: record just the number, no unit beside it.

Examples from the recorded data:
- item_sequence: "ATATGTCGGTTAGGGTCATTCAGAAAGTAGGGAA"
  PBM binding z-score: 4.73
- item_sequence: "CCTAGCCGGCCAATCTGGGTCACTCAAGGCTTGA"
  PBM binding z-score: 0.614
- item_sequence: "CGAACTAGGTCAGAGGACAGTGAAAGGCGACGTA"
  PBM binding z-score: 1.21
- item_sequence: "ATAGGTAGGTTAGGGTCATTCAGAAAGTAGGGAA"
  PBM binding z-score: 5.28
- item_sequence: "ATGTGTAGGTTACATCCGGGTCATTCAGGCTATG"
  PBM binding z-score: 2.23
- item_sequence: "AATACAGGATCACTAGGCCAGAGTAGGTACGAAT"
  PBM binding z-score: -0.102
- item_sequence: "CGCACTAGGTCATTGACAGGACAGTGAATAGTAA"
  PBM binding z-score: 4.64
- item_sequence: "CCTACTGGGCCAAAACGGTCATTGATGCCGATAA"
  PBM binding z-score: -0.421

The reported PBM binding z-score of the sequence CCGAGTAGGTTACGAGGGGGCATTGAGTGCGAAT was 2.26

Query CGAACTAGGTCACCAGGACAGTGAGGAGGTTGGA yields PBM binding z-score of 3.89

Summary for this sequence, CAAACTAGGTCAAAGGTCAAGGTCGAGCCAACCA : PBM binding z-score is 8.28

The recorded PBM binding z-score for entry CGAACTAGGTCACCAGGACAGAGAAGAGGTTGGA equals 4.19

Noted for ATCTCTAGGTAAAGTTCAGCGAAAGATCGATAGA : its PBM binding z-score reads 1.69
